// each record: one item and its Ki for hMMP-1 (Homo sapiens, UniProt P03956)

Observe how each entry below is paired with its result.
Param item = "CC[N+]1=C(/C=C/C=C/C=C2/N(CCCCCC(=O)NCCCOCCOCCOCCCNC(=O)[C@H](CCC(=O)O)NC(=O)[C@H](CCC(=O)O)NC(=O)[C@H](Cc3cc(-c4ccc(-c5cccc(Cl)c5)cc4)no3)CP(=O)(O)c3ccc(Br)cc3)c3ccc4c(S(=O)(=O)[O-])cc(S(=O)(=O)O)cc4c3C2(C)C)C(C)(C)c2c1ccc1c(S(=O)(=O)O)cc(S(=O)(=O)O)cc21" ; retrieve measured Ki.
> 10 µM

Param item = "CC[N+]1=C(/C=C/C=C2/N(CCCCCC(=O)NCCCOCCOCCOCCCNC(=O)[C@H](CCC(=O)O)NC(=O)[C@H](CCC(=O)O)NC(=O)[C@H](Cc3cc(-c4ccc(-c5cccc(Cl)c5)cc4)no3)CP(=O)(O)c3ccc(Br)cc3)c3ccc(S(=O)(=O)[O-])cc3C2(C)C)C(C)(C)c2cc(S(=O)(=O)O)ccc21" ; retrieve measured Ki.
7.21 µM

Param item = NC(=O)[C@H](CCC(=O)O)NC(=O)[C@H](CCC(=O)O)NC(=O)[C@H](Cc1cc(-c2ccc(-c3cccc(Cl)c3)cc2)no1)CP(=O)(O)c1ccc(Br)cc1 [RXP470.1, reference compound] ; retrieve measured Ki.
> 10 µM

Param item = CC1(C)C(=CC=C2CCCC(C=CC3=[N+](CCC[N+](C)(C)C)c4ccc(S(=O)(=O)[O-])cc4C3(C)C)=C2Oc2ccc(CCC(=O)NCCCOCCOCCOCCCNC(=O)C(CCC(=O)[O-])NC(=O)C(CCC(=O)O)NC(=O)C(Cc3cc(-c4cccc(Oc5ccccc5)c4)no3)CP(=O)(O)c3ccc(Br)cc3)cc2)N(CCC[N+](C)(C)C)c2ccc(S(=O)(=O)[O-])cc21 (centres unmarked) ; retrieve measured Ki.
> 10 µM

We now examine a further compound.
Param item = "CC1(C)C(/C=C/C2=C(Oc3ccc(CCC(=O)NCCCOCCOCCOCCCNC(=O)[C@H](CCC(=O)[O-])NC(=O)[C@H](CCC(=O)O)NC(=O)[C@H](Cc4cc(-c5ccc(-c6cccc(Cl)c6)cc5)no4)CP(=O)(O)c4ccc(Br)cc4)cc3)C(=C/C=C3/N(CCC[N+](C)(C)C)c4ccc(S(=O)(=O)[O-])cc4C3(C)C)/CCC2)=[N+](CCC[N+](C)(C)C)c2ccc(S(=O)(=O)[O-])cc21" ; retrieve measured Ki.
> 10 µM

---

# experimental target: hMMP-3 (Homo sapiens)
# Sequence (P08254 100-477): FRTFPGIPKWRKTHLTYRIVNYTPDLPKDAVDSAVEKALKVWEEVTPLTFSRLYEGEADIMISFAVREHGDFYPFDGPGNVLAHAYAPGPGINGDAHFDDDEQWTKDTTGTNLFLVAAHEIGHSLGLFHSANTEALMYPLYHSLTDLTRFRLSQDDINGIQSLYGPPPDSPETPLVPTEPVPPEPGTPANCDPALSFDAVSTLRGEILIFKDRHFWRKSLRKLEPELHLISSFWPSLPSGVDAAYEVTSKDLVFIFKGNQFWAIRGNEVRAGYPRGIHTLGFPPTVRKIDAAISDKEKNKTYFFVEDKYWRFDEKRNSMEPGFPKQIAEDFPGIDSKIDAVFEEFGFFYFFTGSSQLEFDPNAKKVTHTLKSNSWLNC
result type: Ki (nM)
One number for each entry, in nM.

State its Ki on hMMP-3 (Homo sapiens): "CC[N+]1=C(/C=C/C=C/C=C2/N(CCCCCC(=O)NCCCOCCOCCOCCCNC(=O)[C@H](CCC(=O)O)NC(=O)[C@H](CCC(=O)O)NC(=O)[C@H](Cc3cc(-c4ccc(-c5cccc(Cl)c5)cc4)no3)CP(=O)(O)c3ccc(Br)cc3)c3ccc4c(S(=O)(=O)[O-])cc(S(=O)(=O)O)cc4c3C2(C)C)C(C)(C)c2c1ccc1c(S(=O)(=O)O)cc(S(=O)(=O)O)cc21"
31

---

# experiment description: Blood levels in apoE-/- mice
# Assay type: in vivo
# measurement parameters: mouse, whole blood, intravenous, 1 nmol, 60 min, read-out: Blood level
# Description: Fluorescent probes (one nmol in 100 μL saline) were administered through a jugular vein catheter under inhaled isoflurane anesthesia. Blood samples were collected at various time points after probe administration to monitor blood clearance. […] Fluorescence from 10 μL of blood was converted to % injected dose per gram (% ID/g) using a standard curve derived from serial dilutions of each probe in 10 μL of mouse blood. […]
result type: tissue uptake at 60 min (%ID/g)
Give bare numbers, in %ID/g.

Param item = CC1(C)C(=CC=C2CCCC(C=CC3=[N+](CCC[N+](C)(C)C)c4ccc(S(=O)(=O)[O-])cc4C3(C)C)=C2Oc2ccc(CCC(=O)NCCCOCCOCCOCCCNC(=O)C(CCC(=O)[O-])NC(=O)C(CCC(=O)O)NC(=O)C(Cc3cc(-c4cccc(Oc5ccccc5)c4)no3)CP(=O)(O)c3ccc(Br)cc3)cc2)N(CCC[N+](C)(C)C)c2ccc(S(=O)(=O)[O-])cc21 (centres unmarked) ; retrieve measured tissue uptake at 60 min.
2

Next:
Param item = "CC1(C)C(/C=C/C2=C(Oc3ccc(CCC(=O)NCCCOCCOCCOCCCNC(=O)[C@H](CCC(=O)[O-])NC(=O)[C@H](CCC(=O)O)NC(=O)[C@H](Cc4cc(-c5ccc(-c6cccc(Cl)c6)cc5)no4)CP(=O)(O)c4ccc(Br)cc4)cc3)C(=C/C=C3/N(CCC[N+](C)(C)C)c4ccc(S(=O)(=O)[O-])cc4C3(C)C)/CCC2)=[N+](CCC[N+](C)(C)C)c2ccc(S(=O)(=O)[O-])cc21" ; retrieve measured tissue uptake at 60 min.
2.3
